system: AgSla1-D3
procedure-summary: SPOT peptide array binding signal intensity (averaged, normalized) (arbitrary units (background-subtracted, floor 0; scale differs between SH3 domains)); higher = stronger binding of the SH3 domain to the peptide
recorded-endpoint: SPOT peptide array binding signal intensity
The answer should be written as a number, with no unit following it.

            binder  assay_result
0  FPPKRKPLLRPQRSD             5

# input Find the recorded SPOT peptide array binding signal intensity belonging to RTIRKLPLMSLSEYF and report it.
# output 8
